Value source: the RNAGym collection of RNA variant scans (doi:10.1093/nar/gkz1192)

Entries annotated with measured self-cleavage
B1: CPEB3 Ribozyme (parent)
chain: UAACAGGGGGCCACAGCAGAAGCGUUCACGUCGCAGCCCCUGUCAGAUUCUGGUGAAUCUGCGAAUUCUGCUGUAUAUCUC

Variants of: B1
Assay: self-cleavage, relative activity (ratio to wild type); higher = more cleavage; in vitro, sequencing
reported.endpoint: self-cleavage

alteration	observed.result
U25C G30C	0.26
G9U A18G	0.19
G7U U41C	0.21
A45U G63U	0.46
A2G C68A	0.11
